These measurements were taken from paper PMC5540273.

- Test system: CSNK1G1
- test.settings: concentration: 1 μM, replicates: in singlicate; n = 1;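 further: KINOMEscan kinase panel screen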

smiles.structure | readout.unit | %Inh
Cc1cccc(Nc2nc(N[C@H]3CCCC[C@H]3N)ncc2C(N)=O)c1.Cl | % | 21
CN(C)c1ncnc2nc[nH]c12 | % | 3
COc1ccc(C2=C(Nc3cccc(O)c3)C(=O)NC2=O)cc1 | % | 4
Cc1cc(-c2c(-c3ccc(F)cc3)ncn2CCCN2CCOCC2)nc(N)n1 | % | 0

---

- System: MRCKA
- test.settings: concentration: 1 μM, replicates: in singlicate; n = 1
Decide using %Inh: a value greater than or equal to 4% is Met, a smaller one is Not met.

compound | class.label
CNc1nccc(-c2ccc3c(N)n[nH]c3c2)n1 | Not met
Nc1ncnc2scc(-c3ccc(NC(=O)Cc4cc(F)ccc4F)cc3)c12.O=C(O)C(F)(F)F | Not met
O=C(Nc1n[nH]c2cc(-c3cccs3)ccc12)C1CC1 | Not met
COc1ccc(C)c(Nc2ccnc(Nc3ccc(-c4cnc[nH]4)cc3)n2)c1.Cl | Met
CSc1ccc(NC2=C(c3ccc(Cl)cc3)C(=O)NC2=O)cc1 | Not met
N#Cc1cnc2cc(-c3cnc(CNCCN4CCOCC4)s3)ccc2c1Nc1ccc(Oc2ccccc2)cc1 | Met
CN(C)c1ncnc2nc[nH]c12 | Met
Cc1ccc(Nc2ccnc(Nc3ccc(C)c(F)c3)n2)cc1O.Cl | Not met
CC(C)NCC(Cc1ccccc1)NC(=O)c1cc(Br)c(-c2ccnc3[nH]ccc23)s1.Cl.Cl (stereo not drawn) | Met
COc1ccc(C2=C(Nc3cccc(O)c3)C(=O)NC2=O)cc1 | Not met
Cc1ccccc1CC(=O)N1CCc2cc(-c3cn(C)c4ncnc(N)c34)ccc21 | Not met
CN(c1ccc2c(c1)nc(NCc1ccccc1)n2C)c1ccnc(Nc2ccc(CS(C)(=O)=O)cc2)n1.Cl | Met
Cc1ccc(NC(=O)c2cccc(N3CCCCC3)c2)cc1-c1ccc(C(=O)NCC2CC2)cc1 | Met
Cc1cccc(Nc2nc(NCCN)ncc2C(N)=O)c1 | Not met
O=C(Nc1n[nH]c2nc(-c3ccccc3)ccc12)C1CC1 | Met
Cn1cc(-c2ccc3c(c2)CCN3C(=O)Cc2cc(F)cc(F)c2F)c2c(N)ncnc21 | Not met
CCOc1nccc(-c2c(-c3ccc(F)cc3)ncn2C2CCNCC2)n1 | Not met

---

Item-by-item account of %Inh
- System: CAMK2A
- test.settings: concentration: 1 μM, replicates: in singlicate; n = 1

compound | %Inh
CN(c1ccc2c(c1)nc(NCc1ccccc1)n2C)c1ccnc(Nc2ccc(CS(C)(=O)=O)cc2)n1.Cl | 0%
CC(C)c1nc(-c2ccc(F)c(NS(=O)(=O)c3c(F)cccc3F)c2)c(-c2ccnc(Nc3ccc(N4CCOCC4)nc3)n2)s1 | 0%
Cc1ccc(NC(=O)c2ccnc(N3CCCCC3)c2)cc1-c1ccc(C(=O)NCC2CC2)cc1 | 0%
Cc1cccc(Nc2nc(N[C@H]3CCCC[C@H]3N)ncc2C(N)=O)c1.Cl | 0%
NCCC(NC(=O)c1cc(Br)c(-c2ccnc3[nH]ccc23)s1)c1ccccc1.O=C(O)C(F)(F)F.O=C(O)C(F)(F)F (centres unmarked) | 34%
CNc1nccc(-c2ccc3c(N)n[nH]c3c2)n1 | 14%
COc1ccc(NC(=O)c2ccoc2)cc1-c1ccc(C(=O)NCC2CC2)cc1 | 0%
CN(C)c1ncnc2nc[nH]c12 | 12%
CS(=O)(=O)c1cccc(CNc2nc(Nc3ccc4c(c3)CCC(=O)N4)ncc2C(F)(F)F)c1 | 0%
Cc1ccccc1CC(=O)N1CCc2cc(-c3cn(C)c4ncnc(N)c34)ccc21 | 0%
O=C(O)C(F)(F)F.O=c1[nH]ccc2nc(N[C@@H]3CCNC3)nc(Nc3ccc4c(c3)S(=O)(=O)CC4)c12 | 59%
CCn1cnc2c(NCc3ccccc3)ncnc21 | 0%
CC(C)NCC(Cc1ccccc1)NC(=O)c1cc(Br)c(-c2ccnc3[nH]ccc23)s1.Cl.Cl (centres unmarked) | 0%
CCNc1nccc(-c2c(-c3ccc(F)cc3)ncn2C2CCN(C)CC2)n1 | 18%
CC(=O)Nc1cn2nc(Oc3cccc(NC(=O)c4cccc(C(F)(F)F)c4)c3)ccc2n1 | 0%
N#CC1(c2cccc(C(=O)Nc3cccc(Oc4ccc5nc(NC(=O)C6CC6)sc5n4)c3)c2)CC1 | 29%
Cn1cc(-c2ccc3c(c2)CCN3C(=O)Cc2cc(F)cc(C(F)(F)F)c2)c2c(N)ncnc21 | 0%
